System: ATP;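 further: ATP exposure 15 min at 22 °C before imaging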
EXPERIMENTAL_DETAILS: switch fluorescence ratio, 500 uM ATP over buffer (Cy3 cluster intensity, sum of 5 cycles each) (fold (ratio)); higher = stronger signal-on switching upon ATP binding; sequences stand for … in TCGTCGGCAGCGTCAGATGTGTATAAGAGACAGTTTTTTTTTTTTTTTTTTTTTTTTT…TC
SETTINGS: aptamer strand: ATP DNA aptamer (quencher-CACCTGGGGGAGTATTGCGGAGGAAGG + anchor), 100 nM annealed; ATP concentration: 500 uM
READOUT_KIND: switch fluorescence ratio
# print the numeric value only

Take a look at these entries with their results.
GCCCTGGGGA; 2.74
GTAATTTTGA; 1.01
AACTATTTGT; 0.978
TTGAAATATT; 1.02
TTCTGGGTGG; 0.987

Let's switch to this sequence now.
Enquiry: Return switch fluorescence ratio for the following sequence: `TGGACCATTT`
Return: 1.01

* * *

Tested on: ATP;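 further: ATP exposure 15 min at 22 °C before imaging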
EXPERIMENTAL_DETAILS: switch fluorescence ratio, 500 uM ATP over buffer (Cy3 cluster intensity, sum of 5 cycles each) (fold (ratio)); higher = stronger signal-on switching upon ATP binding; sequences stand for … in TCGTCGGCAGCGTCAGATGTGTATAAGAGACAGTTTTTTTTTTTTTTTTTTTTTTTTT…TC
SETTINGS: aptamer strand: ATP DNA aptamer (quencher-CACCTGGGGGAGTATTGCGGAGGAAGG + anchor), 100 nM annealed; ATP concentration: 500 uM
Listed here are sequences together with their documented switch fluorescence ratio.
# print the numeric value only

Take a look at these entries with their results.
TTACCGTGCC; 1.27
CGCAATTGTT; 2.49
TTACAGGGGC; 1.11
CGTAGGAGGG; 0.997
CTAAATAATA; 0.992
ATGTTATCGA; 1.01
TCCGAGGGAG; 1.05
GCCATTCATC; 1.02
CAGGGGCTCG; 1.01
TCCTGTTTTT; 1.01

Enquiry: Return switch fluorescence ratio for the following sequence: `GAGGCGGATG`
Return: 0.997

Enquiry: Return switch fluorescence ratio for the following sequence: `CGGTCCACGA`
Return: 1.02

* * *

System: ATP;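 further: ATP exposure 15 min at 22 °C before imaging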
EXPERIMENTAL_DETAILS: switch fluorescence ratio, 500 uM ATP over buffer (Cy3 cluster intensity, sum of 5 cycles each) (fold (ratio)); higher = stronger signal-on switching upon ATP binding; sequences stand for … in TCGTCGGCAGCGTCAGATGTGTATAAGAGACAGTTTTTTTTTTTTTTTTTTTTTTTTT…TC
SETTINGS: aptamer strand: ATP DNA aptamer (quencher-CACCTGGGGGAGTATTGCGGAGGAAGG + anchor), 100 nM annealed; ATP concentration: 500 uM
READOUT_KIND: switch fluorescence ratio

GGGGTGATCG; 0.984
TTTATAAAGG; 1.01
TCAAAGACGG; 1.02
ATTACGTTGG; 0.998
GCGAGTCTCA; 1.01

Let's switch to this sequence now.
Enquiry: Give switch fluorescence ratio for `GTAATGGCGG` tested on ATP.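 Further: ATP exposure 15 min at 22 °C before imaging.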
Return: 1.01

* * *

Listed here are sequences together with their documented switch fluorescence ratio.
Tested on: ATP;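 further: ATP exposure 15 min at 22 °C before imaging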
EXPERIMENTAL_DETAILS: switch fluorescence ratio, 500 uM ATP over buffer (Cy3 cluster intensity, sum of 5 cycles each) (fold (ratio)); higher = stronger signal-on switching upon ATP binding; sequences stand for … in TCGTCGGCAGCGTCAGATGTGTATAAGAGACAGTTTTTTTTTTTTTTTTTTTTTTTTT…TC
SETTINGS: aptamer strand: ATP DNA aptamer (quencher-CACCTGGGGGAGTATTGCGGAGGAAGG + anchor), 100 nM annealed; ATP concentration: 500 uM
# print the numeric value only

Enquiry: Return switch fluorescence ratio for the following sequence: `TCGGTTTGGT`
Return: 1.01

Enquiry: Return switch fluorescence ratio for the following sequence: `AGGATCTACT`
Return: 1.01

Enquiry: Return switch fluorescence ratio for the following sequence: `CTAATTGCCA`
Return: 0.994

Enquiry: Return switch fluorescence ratio for the following sequence: `AAGAGTGGTG`
Return: 0.988

Enquiry: Return switch fluorescence ratio for the following sequence: `ATCCTCGATT`
Return: 0.964

Enquiry: Return switch fluorescence ratio for the following sequence: `CCTTTAGGGG`
Return: 0.997
